Target Or System: UniProt P78527
Assay: Evaluation of inhibitory activity against DNA-PK (HTRF kinase assay, GST-cMyc-p53 substrate)
Type: biochemical
Conditions: compound concentration 0.01 μM; read-out: EXP_VALUE(% Inhibition) DNA-PK(h) 0.01 μM
Classification field: enter True for inhibition at 0.01 µM values not below 80%, False for values below it.

Smiles Repr | Target Or System | Assigned Category
C[C@H](Nc1ncnc2[nH]ccc(=O)c12)c1c(Cl)c2cccc(N3CCN(c4ccccn4)CC3)c2c(=O)n1-c1ccccc1 | UniProt P78527 | False
C[C@H](Nc1ncnc2[nH]ccc(=O)c12)c1c(Cl)c2cccc(-c3ccc4cnoc4c3)c2c(=O)n1-c1ccccc1 | UniProt P78527 | True
C[C@H](Nc1ncnc2[nH]ccc(=O)c12)c1c(Cl)c2cccc(-c3ccc(-c4nnc(N)s4)cc3)c2c(=O)n1-c1ccccc1 | UniProt P78527 | False
C[C@H](Nc1ncnc2[nH]ccc(=O)c12)c1c(Cl)c2cccc(-c3ccnc(F)c3)c2c(=O)n1-c1ccccc1 | UniProt P78527 | True

Prompt line: Please indicate if the recorded inhibition at 0.01 µM for COc1ccc(-c2cccc3c(Cl)c([C@H](C)Nc4ncnc5[nH]ccc(=O)c45)n(-c4ccccc4)c(=O)c23)cc1 meets or exceeds 80%.
Response line: False

Prompt line: Evaluate C[C@H](Nc1ncnc2[nH]ccc(=O)c12)c1c(Cl)c2cccc(-c3cnc(N4CCN(C)CC4)nc3)c2c(=O)n1-c1ccccc1 : inhibition at 0.01 µM at minimum 80%?
Response line: False

* * *

Target Or System: PI3K-δ (PI3K(p1108/p857) (h)) (Homo sapiens)
Sequence (O00329 whole entry): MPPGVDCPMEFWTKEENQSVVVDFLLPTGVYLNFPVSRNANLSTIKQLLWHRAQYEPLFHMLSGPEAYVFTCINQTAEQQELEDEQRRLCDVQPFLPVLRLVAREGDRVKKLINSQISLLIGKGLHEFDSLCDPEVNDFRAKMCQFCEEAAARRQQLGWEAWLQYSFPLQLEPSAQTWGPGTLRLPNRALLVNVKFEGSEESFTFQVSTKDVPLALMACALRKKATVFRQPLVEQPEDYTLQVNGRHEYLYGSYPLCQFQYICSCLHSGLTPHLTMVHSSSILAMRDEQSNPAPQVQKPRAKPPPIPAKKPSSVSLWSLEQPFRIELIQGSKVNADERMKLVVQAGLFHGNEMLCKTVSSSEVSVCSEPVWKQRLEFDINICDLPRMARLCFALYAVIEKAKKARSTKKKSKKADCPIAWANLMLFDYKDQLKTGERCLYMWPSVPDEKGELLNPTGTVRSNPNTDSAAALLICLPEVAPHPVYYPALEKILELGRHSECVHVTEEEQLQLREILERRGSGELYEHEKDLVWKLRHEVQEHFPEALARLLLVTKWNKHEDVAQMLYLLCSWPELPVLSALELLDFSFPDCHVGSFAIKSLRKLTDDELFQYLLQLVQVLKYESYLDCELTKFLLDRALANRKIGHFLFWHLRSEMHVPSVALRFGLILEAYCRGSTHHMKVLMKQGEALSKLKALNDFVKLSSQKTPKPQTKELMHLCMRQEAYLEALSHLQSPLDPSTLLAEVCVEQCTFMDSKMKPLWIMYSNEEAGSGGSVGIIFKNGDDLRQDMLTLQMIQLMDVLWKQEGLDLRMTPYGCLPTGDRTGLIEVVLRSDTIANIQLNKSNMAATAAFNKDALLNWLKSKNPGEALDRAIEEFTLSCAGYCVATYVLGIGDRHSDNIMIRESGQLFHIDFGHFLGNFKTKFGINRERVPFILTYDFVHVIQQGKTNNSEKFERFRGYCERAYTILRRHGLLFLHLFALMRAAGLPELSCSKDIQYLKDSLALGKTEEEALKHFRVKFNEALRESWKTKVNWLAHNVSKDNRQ
Sequence (P27986 whole entry partner): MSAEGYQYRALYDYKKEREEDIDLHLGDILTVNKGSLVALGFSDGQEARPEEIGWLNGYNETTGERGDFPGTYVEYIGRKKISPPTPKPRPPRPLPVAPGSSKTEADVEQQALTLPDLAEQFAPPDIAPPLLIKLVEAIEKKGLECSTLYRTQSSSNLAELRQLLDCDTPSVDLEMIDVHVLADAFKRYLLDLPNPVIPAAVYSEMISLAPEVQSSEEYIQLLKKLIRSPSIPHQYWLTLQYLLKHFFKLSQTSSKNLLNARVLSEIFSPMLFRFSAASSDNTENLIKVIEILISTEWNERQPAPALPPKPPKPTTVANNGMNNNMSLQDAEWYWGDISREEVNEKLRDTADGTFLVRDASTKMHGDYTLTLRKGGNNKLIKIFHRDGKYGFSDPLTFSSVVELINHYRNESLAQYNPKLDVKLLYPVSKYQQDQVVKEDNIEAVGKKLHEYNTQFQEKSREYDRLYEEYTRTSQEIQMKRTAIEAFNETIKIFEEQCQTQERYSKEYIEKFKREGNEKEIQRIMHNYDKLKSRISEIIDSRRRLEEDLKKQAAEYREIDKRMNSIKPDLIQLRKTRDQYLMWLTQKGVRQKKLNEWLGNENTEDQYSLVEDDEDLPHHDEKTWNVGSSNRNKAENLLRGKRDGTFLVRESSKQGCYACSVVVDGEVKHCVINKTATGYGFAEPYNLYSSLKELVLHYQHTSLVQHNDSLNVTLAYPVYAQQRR
Assay: Evaluation of inhibitory activity against PI3K-δ (HTRF kinase assay)
Format: biochemical
Conditions: compound concentration 0.01 μM; read-out: EXP_VALUE(% Inhibition) PI3K-δ 0.01 μM
Classify as follows. Reported inhibition at 0.01 µM greater than or equal to 60%: Y. Reported inhibition at 0.01 µM below: N.

Smiles Repr | Assigned Category
C[C@H](Nc1ncnc2[nH]ccc(=O)c12)c1cc2cccc(-c3nc4ccccc4o3)c2c(=O)n1-c1ccccc1 | N

Prompt line: Has C[C@H](Nc1ncnc2[nH]ccc(=O)c12)c1c(Cl)c2cccc(-c3ccnc(F)c3)c2c(=O)n1-c1ccccc1 a recorded inhibition at 0.01 µM greater than or equal to 60%?
Response line: Y

Prompt line: Hi, just wondering whether C[C@H](Nc1ncnc2[nH]ccc(=O)c12)c1c(Cl)c2cccc(-c3cnc4nncn4c3)c2c(=O)n1-c1ccccc1 shows inhibition at 0.01 µM of 60% or higher.
Response line: Y

Prompt line: # bool: inhibition at 0.01 µM of C[C@H](Nc1ncnc2[nH]ccc(=O)c12)c1c(Cl)c2cccc(-c3cccc(CC#N)c3)c2c(=O)n1-c1ccccc1 >= 60%
Response line: Y

Prompt line: Is reported inhibition at 0.01 µM greater than or equal to 60% here: CC(C)Nc1ncc(-c2cccc3c(Cl)c([C@H](C)Nc4ncnc5[nH]ccc(=O)c45)n(-c4ccccc4)c(=O)c23)cn1
Response line: Y

Prompt line: Tell me whether inhibition at 0.01 µM is at least 60% here: C[C@H](Nc1ncnc2[nH]ccc(=O)c12)c1c(Cl)c2cccc(NS(C)(=O)=O)c2c(=O)n1-c1ccccc1
Response line: Y

Prompt line: hey, is inhibition at 0.01 µM for this one >= 60%? CCN(CC)c1ncc(-c2cccc3c(Cl)c([C@H](C)Nc4ncnc5[nH]ccc(=O)c45)n(-c4ccccc4)c(=O)c23)cn1
Response line: Y

Prompt line: Quick check, inhibition at 0.01 µM >= 60%? C[C@H](Nc1ncnc2[nH]ccc(=O)c12)c1c(Cl)c2cccc(NCc3cccnc3)c2c(=O)n1-c1ccccc1
Response line: N

Prompt line: Check the entry C[C@H](Nc1ncnc2[nH]ccc(=O)c12)c1c(Cl)c2cccc(B3OC(C)(C)C(C)(C)O3)c2c(=O)n1-c1ccccc1 : does inhibition at 0.01 µM equal or exceed 60%?
Response line: N

Prompt line: Could you verify whether the entry C[C@H](Nc1ncnc2[nH]ccc(=O)c12)c1cc2cccc(-c3ccc(C(N)=O)cc3)c2c(=O)n1-c1ccccc1 shows inhibition at 0.01 µM of no less than 60%?
Response line: Y

Prompt line: Can C[C@H](Nc1ncnc2[nH]ccc(=O)c12)c1c(Cl)c2cccc(-c3cc(O)cc(F)c3)c2c(=O)n1-c1ccccc1 be said to have inhibition at 0.01 µM at or above 60%?
Response line: Y
